Provenance of the data: PubChem BioAssay (NCI)

Experiment: NCI Yeast Anticancer Drug Screen. Data for the rad50 strain (AID 155);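 further: 0% = growth of vehicle-only cultures of the same strain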
Conditions: S. cerevisiae rad50 strain growth inhibition; at 5.0 µM (retest, dose inferred, filed as 0.5)
Procedure: Growth inhibition of yeast strains with defined genetic alterations is measured as a screen for potential anti-cancer activity. Selected strains with alterations in DNA damage repair or cell cycle control were exposed to compounds and growth inhibition was measured relative to vehicle treated controls. The strain used in this assay is rad50
The panel holds about 79,000 compounds, 15% with a hit somewhere; the sample as a whole holds those more often. Active and inactive are the calls of the source. No stated cut-off is given here; in the data, active means growth inhibition above about 70%; inactive means the rest.
Reply using exactly one outcome from active, inactive

| MOLECULE | ANSWER LABEL |
| --- | --- |
| O=C(c1ccc(Cl)c([N+](=O)[O-])c1)c1ccc(Cl)c([N+](=O)[O-])c1 | inactive |
| Cc1ccc(O)c(Cc2cccc(Cl)c2)c1 | inactive |

Query: How did this test come out for BrC1=CC(Br)=C2N=C(C(Br)(Br)Br)N=C3N=C(C(Br)(Br)Br)N=C1N32 ?
Response: inactive

Query: How did this test come out for CCOC(=O)C1CSC(c2c(CO)cnc(C)c2O)N1 (stereo unspecified) ?
Response: inactive

Query: How did this test come out for COc1ccc(NC(=O)CSC(N)=O)cc1 ?
Response: inactive

Query: How did this test come out for Cc1cccc(-c2nnc(-c3cccc(C)c3)o2)c1 ?
Response: inactive

Query: How did this test come out for N#CC1=C(N)OC(c2ccccc2)=C(C#N)C1c1ccccc1[N+](=O)[O-] (stereo unspecified) ?
Response: inactive

Query: How did this test come out for CC(=O)Oc1ccc(N2C(=O)C=CC2=O)cc1 ?
Response: active

Query: How did this test come out for C=C1C(=O)C23C(O)C1CC[C@H]2C12CCCC(C)(COC(C)=O)[C@H]1[C@H](O)[C@]3(O)OC2 (stereo partly specified) ?
Response: inactive

Query: How did this test come out for O=C(O)c1cc2ccc3cccc4ccc(c1)c2c34 ?
Response: inactive

Query: How did this test come out for O=C1CC2(CCN(CC3COc4ccccc4O3)CC2)C(=O)N1N1CCCCCC1 (stereo unspecified) ?
Response: inactive

###

test: NCI Yeast Anticancer Drug Screen. Data for the bub3 strain (AID 167); details: S. cerevisiae bub3 mutant strain, at 50.0 µM
About 79,000 compounds went through this panel and 15% of them were active in at least one assay; those are over-represented in the sample as a whole. The source made the active and inactive calls. Cut-off read from the data, not from the text of the source: active = growth inhibition above about 70%; inactive = the rest.
Reply using exactly one outcome from 1 (active), 0 (inactive)

The following compounds have reported results that may help.
| COMPOUND | ANSWER LABEL |
| --- | --- |
| COC(=O)CC1C(=O)OCc2c1cc1n(c2=O)Cc2c-1nc1ccccc1c2OC (stereo unspecified) | 0 |
| CN(Cc1ccccc1)C(c1ccccc1)C(O)C(O)(c1ccccc1)c1ccccc1 (stereo unspecified) | 0 |
| CC(C)C(=O)c1ccc([N+](=O)[O-])o1 | 1 |
| Cc1cc(NCCCCCCCCCC[n+]2c(C)cc(N)c3ccccc32)c2ccccc2n1 | 1 |
| Cc1c2cnccc2c(C)c2c1sc1ccccc12 | 1 |

# input for lookup
Query: How did this test come out for Cc1ccc(O)c(C(c2ccc([N+](=O)[O-])cc2)c2cc(C)ccc2O)c1 ?
Response: 1

###

test: NCI Yeast Anticancer Drug Screen. Data for the mlh1 rad18 strain (AID 175); conditions: S. cerevisiae mlh1 rad18 strain growth inhibition; at 50.0 µM; active compounds read high
Compounds without any hit were thinned out: in the full panel of roughly 79,000, 15% have a hit. Calls of active or inactive are those of the source. Cut-off read from the data, not from the text of the source: active = growth inhibition above about 70%; inactive = the rest.
# growth inhibition listing for each entry below

Examples with their reported growth inhibition follow.
| COMPOUND | growth inhibition |
| --- | --- |
| CCOC(=O)c1ccc(N=Cc2cc(Cl)cc(Cl)c2O)cc1 | 84.5% (active) |
| CC(=O)NNc1nc(C)c(C(=O)NNC(=O)C(=O)Nc2ccc(Cl)c([N+](=O)[O-])c2)s1 | 50.4% (inactive) |
| O=[N+]([O-])c1c(Cl)ccc2nsnc12 | 99% (active) |
| COc1ccccc1C1C2=C(COC2=O)OC(C)(C)Oc2cc3c(cc21)OCO3 (configuration not stated) | 88% (active) |
| Oc1c(N(Cc2ccccc2)Cc2ccccc2)ccc2cccnc12 | 98% (active) |

Query: For O=C(O)/C(=C/c1ccccc1)c1ccccc1.[Ag] , write its growth inhibition.
Response: 99.4% (active)

Query: For O=P1(Cc2ccccc2)c2ccccc2-c2ccccc21 , write its growth inhibition.
Response: 84.3% (active)

Query: For COC(=O)c1c2c(cc3c1CC1(Cc4cc5c(c(C)c4C1)CCC5)C3)CCC2 (configuration not stated) , write its growth inhibition.
Response: -22.9% (inactive)

Query: For ClC(Cl)(Cl)C1OCOC(C(Cl)(Cl)Cl)O1 (configuration not stated) , write its growth inhibition.
Response: 99.3% (active)

Query: For Cc1cc(C(=O)O)c(C)cc1SSc1cc(C)c(C(=O)O)cc1C , write its growth inhibition.
Response: 69.2% (inactive)

Query: For CN(C)CCC(=O)[C@@]1(O)CC[C@H]2[C@@H]3CC=C4C[C@@H](O)CC[C@]4(C)[C@H]3CC[C@@]21C , write its growth inhibition.
Response: 65.5% (inactive)

Query: For NNc1c(Cl)cc(Cl)cc1Cl , write its growth inhibition.
Response: 99.7% (active)

Query: For N#Cc1ccc(C(F)(F)F)cc1[N+](=O)[O-] , write its growth inhibition.
Response: 99.2% (active)

Query: For O=C1CC2(CCN(CC3COc4ccccc4O3)CC2)C(=O)N1N1CCCCCC1 (configuration not stated) , write its growth inhibition.
Response: 83.8% (active)

Query: For COc1ccccc1/C=C1\Sc2scc(-c3ccc(O)c(O)c3)[n+]2C1=O , write its growth inhibition.
Response: 99% (active)

Query: For COC1CC2CCC(C)[C@](O)(O2)C(=O)C(=O)N2CCCCC2C(=O)OC(C(C)CC2CCC(O)C(OC)C2)CC(=O)C(C)C=C(C)C(OC(=O)CCCN2CCCC2)C(OC)C(=O)C(C)CC(C)/C=C/C=C/C=C\1C (some centres not stated) , write its growth inhibition.
Response: 91.5% (active)

Query: For NSc1ccccn1 , write its growth inhibition.
Response: 96.7% (active)

Query: For S=C(N/N=C/c1ccco1)NC12CC3CC(CC(C3)C1)C2 , write its growth inhibition.
Response: 26.2% (inactive)

Query: For Oc1ccc(-c2ccccc2)cc1O , write its growth inhibition.
Response: 81.4% (active)

Query: For CC(C)OC(=O)c1ccccc1C(=C1C=C(Br)C(=O)C(Br)=C1)c1cc(Br)c(O)c(Br)c1 , write its growth inhibition.
Response: 90.5% (active)

Query: For O=C1c2ccccc2CC(Br)c2ccccc21 (configuration not stated) , write its growth inhibition.
Response: 97.7% (active)

Query: For CCOC(=O)Nc1cc2c(cc1Br)-c1ccccc1C2O (configuration not stated) , write its growth inhibition.
Response: 18.7% (inactive)

###

experiment: NCI Yeast Anticancer Drug Screen. Data for the mec2-1 strain (AID 157); details: S. cerevisiae mec2-1 strain, at 50.0 µM, active compounds read high
This is part of a sample that, as a whole, favours compounds with a hit. Of some 79,000 tested, about 15% had one in any assay.
# growth inhibition listing for each entry below
Supply the numeric figure in %, leaving out any unit text.

Examples with their reported growth inhibition follow.
| MOLECULE | UNIT OF MEASUREMENT | growth inhibition |
| --- | --- | --- |
| [N-]=[N+]=CC(=O)C1(c2ccccc2)OC1c1ccccc1 (configuration not stated) | % | 2.55 |
| CCN(CC)CCC(=O)OC1C(C)=CC(C)C(=O)CC(C(C)CC2CCC(O)C(OC)C2)OC(=O)C2CCCCN2C(=O)C(=O)[C@@]2(O)OC(CCC2C)CC(OC)\C(C)=C/C=C/C=C/C(C)CC(C)C(=O)C1OC (some centres not stated) | % | 93 |
| COc1ccccc1C1c2cc3c(cc2OC(C)(O)C1C)OCO3 (configuration not stated) | % | 58.4 |
| CCCC/C=C(/CCCNCCc1ccccc1)[Si](C)(C)C | % | 93 |
| N#CC1=C(N)OC(c2ccccc2)=C(C#N)C1c1ccccc1[N+](=O)[O-] (configuration not stated) | % | 38.1 |
| O=C(CCCCCCCCCCc1ccccc1)c1c(O)cccc1O | % | 89 |
| O=C(O)c1ccccc1SC(Sc1ccccc1C(=O)O)c1cccc(Cl)c1 | % | 80 |
| CCCCCN(CCCCC)CC(C)(C)C(O)c1ccc(OC)c2ccccc12 (configuration not stated) | % | 47.6 |
| NNc1ccc(Br)cc1 | % | 92.2 |
| CCOc1nc(N)nc(C)c1N=Nc1ccc(Cl)cc1 | % | 67.7 |

Query: For COc1ccc(C(C)c2cc3c(cc2OC/C(C)=N/NC(N)=O)OCO3)cc1 (configuration not stated) , write its growth inhibition.
Response: 71.6

Query: For Cc1ccc(C(=O)C(F)(F)F)cc1 , write its growth inhibition.
Response: -15.9

Query: For Fc1cccc(C2SCc3nc4ccccc4n32)c1F (configuration not stated) , write its growth inhibition.
Response: 54.8

Query: For COc1cc(C2c3cc4c(cc3OC3(O)C=C(C)OC(=O)C23)OCO4)cc(OC)c1OC (configuration not stated) , write its growth inhibition.
Response: 30

Query: For ClC1=C(Cl)C(Cl)=C(Cl)C1 , write its growth inhibition.
Response: 51.4

Query: For CCCCCCCC(=O)/C=C/c1ccc(C)cc1 , write its growth inhibition.
Response: 44.1

Query: For Oc1c(Cl)ccc2cccnc12 , write its growth inhibition.
Response: 93.8

Query: For Nc1cccc2c1C(=O)c1ccc(Cl)cc1C2=O , write its growth inhibition.
Response: 71.8

Query: For C/C=C(/CCC1NCCC2c3ccccc3NC12)[Si](C)(C)C (configuration not stated) , write its growth inhibition.
Response: 7.15

Query: For CCCCCCC/C=C/C(=O)OC1C(OC2C(OC(CCCCCCC)CC(=O)OC(CCCCCCC)CC(=O)O)OC(C)C(O)C2O)OC(C)C(O)C1O (configuration not stated) , write its growth inhibition.
Response: 81.8

Query: For CCC[CH2][Ge]([CH2]CCC)([CH2]CCC)[O]C(=O)C(OC(C)=O)c1ccccc1 (configuration not stated) , write its growth inhibition.
Response: 75.2

Query: For CN(C)CCC(=O)[C@@]1(O)CC[C@H]2[C@@H]3CC=C4C[C@@H](O)CC[C@]4(C)[C@H]3CC[C@@]21C , write its growth inhibition.
Response: 75.4
